Biological target: T1, human TSH receptor (full length), coated on tubes (human, UniProt P16473 22-764)
T1 construct: TSHR coated tubes as described in WO2004/050708A2; The receptor is full length and held on plastic tubes through a mouse MAb to the TSHR; also called thyroid stimulating hormone receptor
Test: inhibition of 125I-K1-70 Fab (competitor) binding to TSHR coated tubes; 10 µg/mL in assay buffer
Method: Binding inhibition assays were carried out using TSHR coated tubes as described in WO2004/050708A2. […] After aspiration, the tubes were washed and 100 μL of ¹²⁵I-labelled protein (5×10⁴ cpm) added and incubated for 1 hour at room temperature with shaking. The tubes were then aspirated, washed and counted in a gamma counter. Inhibition of labelled protein binding was calculated as 100×[1−(cpm bound in the presence of test material/cpm bound in the presence of control material)].
readout-name: Inhibition of binding (%)

binder	readout-name	unit-of-measurement	recorded-result
K1-18 IgG (antibody, V domains shown, Human IgG1 kappa purified from hetero-hybridoma supernatant; also called human monoclonal autoantibody to the TSHR with TSH agonist activity) VH: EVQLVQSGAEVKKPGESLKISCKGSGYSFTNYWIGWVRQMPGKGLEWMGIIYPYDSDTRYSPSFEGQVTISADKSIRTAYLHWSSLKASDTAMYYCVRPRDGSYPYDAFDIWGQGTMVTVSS VL: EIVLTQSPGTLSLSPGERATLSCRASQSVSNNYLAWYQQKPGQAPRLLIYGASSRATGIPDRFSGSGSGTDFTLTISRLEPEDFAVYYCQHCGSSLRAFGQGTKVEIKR	Inhibition of binding (%)	%	94
K1-70 Fab (Fab, V domains shown) VH: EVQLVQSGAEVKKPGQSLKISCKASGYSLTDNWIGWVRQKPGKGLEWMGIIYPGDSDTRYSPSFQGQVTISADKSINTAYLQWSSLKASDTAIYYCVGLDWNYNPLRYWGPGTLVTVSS VL: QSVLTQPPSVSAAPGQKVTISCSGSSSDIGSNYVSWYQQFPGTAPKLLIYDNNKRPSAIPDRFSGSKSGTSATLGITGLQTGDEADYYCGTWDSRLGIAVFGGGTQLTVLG	Inhibition of binding (%)	%	93.6
K1-70 IgG (antibody, V domains shown, Human IgG1 lambda purified from hetero-hybridoma supernatant; also called human monoclonal autoantibody to the TSHR with TSH antagonist activity) VH: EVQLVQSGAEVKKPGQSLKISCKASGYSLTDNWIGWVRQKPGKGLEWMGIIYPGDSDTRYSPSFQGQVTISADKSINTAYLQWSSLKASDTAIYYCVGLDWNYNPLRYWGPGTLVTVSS VL: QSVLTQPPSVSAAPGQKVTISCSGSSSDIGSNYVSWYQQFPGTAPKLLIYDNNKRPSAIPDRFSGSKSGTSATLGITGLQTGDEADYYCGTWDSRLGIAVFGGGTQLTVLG	Inhibition of binding (%)	%	96.9
K1-18 Fab (Fab, V domains shown) VH: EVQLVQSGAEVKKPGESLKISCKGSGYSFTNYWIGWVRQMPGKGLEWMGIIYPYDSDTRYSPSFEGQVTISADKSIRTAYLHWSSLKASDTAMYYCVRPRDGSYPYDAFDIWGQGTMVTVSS VL: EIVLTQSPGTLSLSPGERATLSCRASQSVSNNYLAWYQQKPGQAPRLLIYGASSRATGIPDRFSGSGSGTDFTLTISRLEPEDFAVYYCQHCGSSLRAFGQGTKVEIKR	Inhibition of binding (%)	%	80.8
